Assay: in vitro
Conditions: human, hela cells, % viability
Known viability at 28.5 h, 10 µM of a selection of compounds
Endpoint: viability at 28.5 h, 10 µM (%)

>>> readout_value("CCCC(=O)NC1CC(C)(C)Cc2nc(N3CCOCC3)ncc21 (centres unmarked)")
94.7
>>> readout_value("CSCCCN1CCn2nc(CNc3cnccn3)cc2C1")
92.5
>>> readout_value("Oc1c(CN2CCN(Cc3ccc4cccnc4c3O)CC2)ccc2cccnc12")
86.1
>>> readout_value("COc1ccc(C(C)C)cc1-c1cnc2[nH]c(=O)n(CCc3cccnc3)c2n1")
90.4
>>> readout_value("CSc1nsc(SCc2cnc(C)nc2N)n1")
105
>>> readout_value("Cc1noc(NS(=O)(=O)c2ccc(NC(=O)/C=C/c3ccc(C(C)C)cc3)cc2)c1C")
89.2
>>> readout_value("COc1cc2c(cc1OC)C(C)N(Cc1cc(C)c(O)c(C)c1)CC2 (centres unmarked) [CBK074659C]")
99.9
>>> readout_value("CC1(C)CC(=O)c2cnc3cc(-c4ccco4)nn3c2C1")
102
>>> readout_value("O=S(=O)(c1cccc(S(=O)(=O)N2CCOCC2)c1)c1ccc(Cl)c(S(=O)(=O)N2CCOCC2)c1")
104
>>> readout_value("CCn1c(SCC(=O)Nc2ccc(OC)c(Cl)c2)nnc1-c1ccccc1O")
101
>>> readout_value("O=C(O)c1cc(-c2cc(Cl)ccc2Cl)nc2ccccc12")
96.1
>>> readout_value("COc1ccc(-n2c(C)c([N+](=O)[O-])c3ccc(O)cc32)cc1")
85
>>> readout_value("COCCCNC(=O)Cn1ccc2ccnc(-c3cccs3)c21")
109
>>> readout_value("CNC(=O)N1CC(=O)N(Cc2cccc(Cl)c2)C1=O")
104
>>> readout_value("c1coc(CN2CCC(c3ccc4c(c3)OCO4)CC2)c1")
90.3
>>> readout_value("COc1cccc(CNC2CC2)c1OCc1ccccc1 [CBK270009C]")
90.6
>>> readout_value("O=C(CNC(=O)c1ccc2c(c1)OCCO2)N/N=C/c1cccs1")
86.5
>>> readout_value("CC(C)NC(=O)N(C)C1CCN(c2ncnc3ccccc23)CC1")
92.4
>>> readout_value("Cn1cc(-c2nccnc2OCCc2cccs2)cn1")
95
>>> readout_value("CS(=O)(=O)c1ccc(NC(=S)N2CCN(c3ccc(F)cc3)CC2)cc1")
95.3

Each recorded value in this set is attributed to paper PMC12040169.
